B1: C9orf9 (parent)
chain: LTKASLKPRGCSKPPWRPPGGKL

# Variants of: B1
# assay-explanation: protein stability index of a GFP-peptide fusion (GPS, HEK-293T) (PSI 1-6); higher = more stable;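 note: lentivirally expressed fusions sorted by FACS into six bins by GFP to DsRed ratio, PSI derived from sequencing read proportions per bin multiplied by bin number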
# assay-context: c terminus: native
measurement-name: protein stability index

protein stability index for `K7S` ? 1.53

Recorded protein stability index of `K3H` , please. 2.28

Item under review: `P15Y` . Reported protein stability index? 2.73

protein stability index lookup needed for `G21Y` , thanks. 2.35

Which measured protein stability index value corresponds to `G10F` ? 1.91

I am curious: what protein stability index value has been reported for `C11N` ? 1.58

Which measured protein stability index value corresponds to `G20C` ? 2.91

State the recorded protein stability index for this entry: `P15G` 2.02

Which protein stability index is reported for this variant? `T2H` 2.12

Which protein stability index reading was recorded for the variant `S12W` ? 3.5

Record request: protein stability index value, item `K7F` 1.78

Looking for the measured protein stability index of `P18H` , can you help? 3.78

// protein stability index lookup, key: `A4V` 1.58

May I ask what protein stability index has been recorded for `L1E` ? 2.09

Would you mind telling me what protein stability index value was observed for `C11G` ? 2.13

Any idea what its protein stability index is? The variant is `S5F` 2.03

// query protein stability index value for entry `P19T` 3.72

GET /values?readout=protein stability index&item= `K3L` 2.36

Entry under review: `G20I` . Reported protein stability index? 2.42

Could you tell me which protein stability index is on file for `L23Y` ? 2.13

Reported protein stability index, variant `S12E` : ____ 2.02

For the variant shown here, `G20K` , give the reported protein stability index. 3.36

The values you see were collected from the supplement of paper PMC10567573.
